Provenance of the data: ChEMBL document CHEMBL1201862

Tested on: HOP-62
ASSAY COMMENT: NCI tumour cell line growth inhibition, 48 h
Active and inactive are the calls of the source. No stated cut-off is given here; in the data, active = GI50 up to about 1.1 µM and inactive = higher.
MEASURE NAME: GI50

* CSC12c3cc(C)n(-c4ccc([N+](=O)[O-])cc4)c3CC(C)(C)CN1C(=O)C2Oc1ccccc1 (stereo not drawn) | > 100 µM (inactive)
* C[N+](C)(C)CC1CCCC(C[N+](C)(C)C)C1=O (stereo not drawn) | 23.3 µM (inactive)
* O=C(O)/C(=C/c1ccccc1[N+](=O)[O-])c1ccccc1 | > 100 µM (inactive)
* Cc1ccc(C)c(C(=O)CC2OC(O)C(Cl)C2Cl)c1 (stereo not drawn) | > 100 µM (inactive)
* CN(C)CC/C(=N\Nc1ccc(Cl)cc1)c1ccccc1 | 1.68 µM (inactive)
* CC(=O)c1cccc(N2COC(C)(C)c3nc4ccccc4n3C2)c1 | > 100 µM (inactive)
* OC[C@@H](O)[C@H](O)[C@H](O)[C@@H](O)C1SCCCS1 | > 100 µM (inactive)
* CC(C(=O)c1ccccc1)C(c1ccccc1)N1CCOCC1 (stereo not drawn) | > 100 µM (inactive)
* CC1(C)CC[C@]2(C(=O)O)CC[C@]3(C)C(=CC[C@@H]4[C@@]5(C)C[C@H](O)[C@H](O)[C@@](C)(CO)C5=CC[C@]43C)[C@@H]2C1 | > 100 µM (inactive)
* CC1(C)N=C(N)N=C(N)N1c1ccc(CCCCCCc2ccc(S(=O)(=O)F)cc2)cc1 | 1.19 µM (inactive)
* O=S(=O)(NC(c1ccccc1)(c1cc2ccccc2[nH]1)c1cc2ccccc2n1S(=O)(=O)c1ccccc1)c1ccccc1 (stereo not drawn) | > 100 µM (inactive)
* CCCC(=O)Nc1cc(/C=C/C(=O)N2CC(CCl)c3c2cc(OC(C)=O)c2[nH]cc(C)c32)n(C)c1 (stereo not drawn) | 4.63e-05 µM (active)
* Cc1cccc2c(N)c3cccc(C(=O)NCCN(C)C)c3nc12 | < 0.0247 µM (active)

* * *

System: UO-31
ASSAY COMMENT: NCI tumour cell line growth inhibition, 48 h
The source made the active and inactive calls. Rule as the data show it: active = GI50 up to about 1.1 µM and inactive = higher.
Classes used: active, inactive

• C(/Cc1ccc2c(c1)OCO2)=N\N=C1NCCN1 = inactive
• CC1=C(C(=O)Nc2ccccc2C)C(/C=C/c2ccccc2)C(C(=O)Nc2ccccc2C)=C(C)N1 = inactive
• COC(=O)c1ccc(NCc2cc(O)ccc2O)cc1 = inactive
• Cc1ccc(-c2nc(Cc3n[nH]c(-c4ccc(C)cc4)n3)n[nH]2)cc1 = inactive
• COc1ccc(CC2c3cc(Oc4cc(CC5c6cc(OC)c(OC)cc6CCN5C)ccc4O)c(OC)cc3CCN2C)cc1 (stereo not drawn) = inactive
• CN(C)CCCN=C(N)N = inactive
• CCP(C)(C)=O = inactive
• CCN1CSC(=S)N(CC)C1 = inactive
• O=C1CCC2(CC1CC[S+]([O-])c1ccccc1)OCCO2 (stereo not drawn) = inactive
• Cc1ccc(C(=O)OC(C)C)cc1/N=N/N(C)C = inactive
• CN(C)CC/C(=N\Nc1ccc(Cl)cc1)c1ccccc1 = active
• NNc1ncc2c(n1)-c1ccccc1OC2 = inactive
• CCN(CC)C(=O)COc1ccc(Br)cc1Br = inactive
• CO[C@@H]1[C@H](OC(=O)NC(=O)CCl)CC[C@]2(CO2)[C@H]1[C@@]1(C)O[C@@H]1CC=C(C)C [O-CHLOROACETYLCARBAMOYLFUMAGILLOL] = inactive
• Cc1ccc(C)c(C(=O)CC2OC(O)C(Cl)C2Cl)c1 (stereo not drawn) = inactive
• C=C1C(=O)O[C@H](c2ccoc2)C[C@@H]1[C@@]1(C)CCCC2(C)C(=O)OCC21 (stereo partly drawn) = inactive
• O=C(Cc1ccccc1)NN1C(=O)C(Cl)C1c1ccccc1Cl (stereo not drawn) = inactive
• Cc1nc(Nc2ccccc2)sc1C(=O)NNc1ccc([N+](=O)[O-])cc1[N+](=O)[O-] = inactive
• CC(=O)N(C)CCc1c[nH]c2ccccc12 = inactive
• N/N=C1\C(OC(=O)Nc2cccc(Cl)c2)=Nc2ccccc21 = inactive
• NC(=O)NN=C1Cc2ccccc2C1 = inactive
• Nc1nc(CCC(=O)Nc2cccc(C(F)(F)F)c2)cc(-c2cccc3ccccc23)n1 = inactive
• C=C1CC2OC2(C(=O)O[C@H]2CCC3[C@@H]4CCC5=CC(=O)CC[C@]5(C)C4CC[C@@]32C)C1=O (stereo partly drawn) = inactive
• Nc1ncnc2c1ncn2C1OC(CO)C2OC21 (stereo not drawn) = inactive
• CCOc1ccc(NC(=O)C2=C(C)NC(C)=C(C(=O)Nc3ccc(OCC)cc3)C2c2ccccc2)cc1 = inactive
• CC1(C)CC[C@]2(C(=O)O)CC[C@]3(C)C(=CC[C@@H]4[C@@]5(C)C[C@H](O)[C@H](O)[C@@](C)(CO)C5=CC[C@]43C)[C@@H]2C1 = inactive
• CCOC(=O)CN1C(=O)c2ccc(NC(=O)C(=O)O)cc2S1(=O)=O = inactive
• [N-]=[N+]=Nc1c(C=O)c(=O)n(-c2ccccc2)c2ccccc12 = inactive

* * *

In this section we review reported GI50 values for a set of compounds.
System: HT-29
ASSAY COMMENT: NCI tumour cell line growth inhibition, 48 h
Activity calls are given as the source filed them. Cut-off read from the data, not from the text of the source: active = GI50 up to about 1.1 µM and inactive = higher.
MEASURE NAME: GI50

* COC(=O)C(C(=O)C(=O)Nc1ccc(C)cc1)c1nc2ccc([N+](=O)[O-])cc2nc1O (stereo unspecified) | > 100 µM (inactive)
* Cc1cnc2sn(-c3ccc(Br)cc3)c(=O)c2c1 | 28.9 µM (inactive)
* O=C1c2ccccc2C(=O)N1CCc1nc(-c2ccccc2)c[nH]1 | > 100 µM (inactive)
* O=C(c1ccccc1)N1CCC(CC2(c3cc4ccccc4[nH]3)OCCO2)CC1 | 26.5 µM (inactive)
* CCOC(=O)c1c(NC(=O)c2ccccc2)c(C#N)c2n1CCCCC2 | > 100 µM (inactive)
* O=C(O)/C(=C/c1ccccc1[N+](=O)[O-])c1ccccc1 | > 100 µM (inactive)

* * *

System: SW-620
ASSAY COMMENT: NCI tumour cell line growth inhibition, 48 h
Calls of active or inactive are those of the source. Cut-off read from the data, not from the text of the source: active = GI50 up to about 1.1 µM and inactive = higher.
MEASURE NAME: GI50

* C[C@]12CC[C@@H]3c4ccc(O)cc4CC[C@H]3[C@@H]1C/C(=C\c1ccc(C#N)cc1)C2=O | 24.5 µM (inactive)
* O=C1C(=O)N(c2cccc(C(F)(F)F)c2)C(=S)N1c1ccccc1 | 36.2 µM (inactive)
* CCCc1c(C(=O)OCC)[nH]c(C(=O)CCC(=O)c2[nH]c(C(=O)OCC)c(CCC)c2C(=O)OCC)c1C(=O)OCC | > 100 µM (inactive)
* C[C@]12CC[C@@H]3c4ccc(OCCN5CCCC5)cc4CC[C@H]3[C@@H]1CCC2=O | 41 µM (inactive)
* CC(C)(C)N1CC2(CCCCC2)C1=O | > 100 µM (inactive)
* CC1=C(O)C(O)=C(C2=C(O)C(O)=C(C)C(=O)C2=O)C(=O)C1=O | 68.9 µM (inactive)
* CCOc1ccc(NC(=O)C2=C(C)NC(C)=C(C(=O)Nc3ccc(OCC)cc3)C2c2ccccc2)cc1 | > 100 µM (inactive)
* COc1ccc(S(=O)(=O)NC(CCC(=O)NC(N)=O)C(=O)NC(N)=O)cc1 (configuration not stated) | > 100 µM (inactive)
* Cc1ccc(S(=O)(=O)Oc2nc3ccccc3nc2OS(=O)(=O)c2ccc(C)cc2)cc1 | 25.9 µM (inactive)
* CC(=O)Nc1cc2cc(NS(=O)(=O)c3ccc(Cl)c(Cl)c3)ccc2oc1=O | 50.7 µM (inactive)
* COC(=O)Cc1c([C@H]2[C@H](CC(=O)OC)c3ccccc3N2C(C)=O)[nH]c2ccccc12 | > 100 µM (inactive)
* CC(=O)OCC1OC(O[C@@H]2c3c(O)c4c(c(O)c3C3=C(NN(c5ccc([N+](=O)[O-])cc5[N+](=O)[O-])[Se]3=O)[C@@]2(C)O)C(=O)c2ccccc2C4=O)C(OC(C)=O)C(OC(C)=O)C1OC(C)=O (some centres not stated) | 0.101 µM (active)
* CCSc1nnc2c(-c3ccccc3)n[nH]c2n1 | > 100 µM (inactive)
* O=C(O)CNC(=O)CO/N=C1/C(=C2/C(=O)Nc3ccccc32)Nc2ccccc21 | > 100 µM (inactive)
* O=C(NC(=O)c1cn(CCN(CCO)C(=O)NCCCCCCNC(=O)N(CCO)CCn2cc(C(=O)NC(=O)OCc3ccccc3)c(=O)[nH]c2=O)c(=O)[nH]c1=O)OCc1ccccc1 | > 100 µM (inactive)
* COC(=O)/C=c1/c2ccccc2n2nc3ccccc3c12 | 65 µM (inactive)
* CC12CC(Sc3ccccc3N1)c1ccccc1O2 (configuration not stated) | 17.7 µM (inactive)
* C=C(CN(C)C)C(=O)c1ccccc1 | 1.69 µM (inactive)
* C(/Cc1ccc2c(c1)OCO2)=N\N=C1NCCN1 | > 100 µM (inactive)
* CCN(CC)CCC(=O)c1ccc(Cl)c(Cl)c1 | 19.7 µM (inactive)
* NC1=NS(=O)(=O)Nc2[nH]c(-c3ccccc3)nc21 | > 100 µM (inactive)
* CCOC(=O)c1c(NC(=O)c2cccs2)sc2c1CCCC2 | > 100 µM (inactive)
* CCN(CC)Cc1cc(Nc2c3ccccc3nc3c4ccccc4n(C)c23)cc(CN(CC)CC)c1O | 3.12 µM (inactive)
* C[N+](C)(C)[BH-](Br)C(O)O (configuration not stated) | > 100 µM (inactive)
* COc1ccc(CC2c3cc(Oc4cc(CC5c6cc(OC)c(OC)cc6CCN5C)ccc4O)c(OC)cc3CCN2C)cc1 (configuration not stated) | 1.66 µM (inactive)
* CC(C)=C1CCC(CN2CCCC2)C1=O (configuration not stated) | 22.1 µM (inactive)
* CC(=O)SCCC(NC(=S)Nc1ccccc1)P(=O)(Oc1ccccc1)Oc1ccccc1 (configuration not stated) | > 100 µM (inactive)
